Values from patent US20230303599A1

Assay: Kinetic solubility analysis
Assay type: physicochemical
Settings: 1× PBS, 24.2 °C, aqueous buffer, kinetic from dmso stock; pH 7.4 PBS, 1% DMSO, 24-hour incubation at ambient temperature
I'd be grateful if you could share measured solubility kinetic at 24 h for these entries.
// units = µg/mL; emit number, no label

Quick one: solubility kinetic at 24 h of `C[C@H](Cn1cnc2c(N)ncnc21)OCP(=O)(NC(C)(C)C(=O)OC1CCCCC1)NC(C)(C)C(=O)OC1CCCCC1` ? 57

Item `CCCCCCOC(=O)C(C)(C)NP(=O)(CO[C@H](C)Cn1cnc2c(NC(=O)CCCC(=O)OCc3oc(=O)oc3C)ncnc21)NC(C)(C)C(=O)OCCCCCC` has what recorded solubility kinetic at 24 h? 25

solubility kinetic at 24 h lookup needed for `CCCC(CCC)COC(=O)C(C)(C)NP(=O)(CO[C@H](C)Cn1cnc2c(N)ncnc21)NC(C)(C)C(=O)OCC(CCC)CCC` , thanks. 1

For CCCCCCOC(=O)C(C)(C)NP(=O)(CO[C@H](C)Cn1cnc2c(N)ncnc21)N[C@]1(C(=O)OCCCCCC)C[C@H]1CC (stereo partly drawn) , what is its reported solubility kinetic at 24 h? 12

I would be grateful if you could share the reported solubility kinetic at 24 h for `CCCCCCOC(=O)C(C)(C)NP(=O)(CO[C@H](C)Cn1cnc2c(NC(=O)OCC(C)(C)C(=O)OCc3oc(=O)oc3C)ncnc21)NC(C)(C)C(=O)OCCCCCC` . 7

Please report the recorded solubility kinetic at 24 h for `C[C@H](Cn1cnc2c(N)ncnc21)OCP(=O)(NC(C)(C)C(=O)OC1CCC1)NC(C)(C)C(=O)OC1CCC1` . 72

What measured solubility kinetic at 24 h goes with `CCCCCCOC(=O)C(C)(C)NP(=O)(CO[C@H](C)Cn1cnc2c(NC(=O)CCCSC(C)=O)ncnc21)NC(C)(C)C(=O)OCCCCCC` ? 13

Look at this molecule and give its reported solubility kinetic at 24 h. `C[C@H](Cn1cnc2c(N)ncnc21)OCP(=O)(N[C@@](C)(Cc1ccccc1)C(=O)OCC1CCCCC1)N[C@@](C)(Cc1ccccc1)C(=O)OCC1CCCCC1` 2

Return reported solubility kinetic at 24 h; argument: `CCC(CC)COC(=O)C(C)(C)NP(=O)(CO[C@H](C)Cn1cnc2c(N)ncnc21)NC(C)(C)C(=O)OCC(CC)CC` 65

Consider the molecule shown here: `CCCCCCOC(=O)C(C)(C)NP(=O)(CO[C@H](C)Cn1cnc2c(NC(=O)OCCC)ncnc21)NC(C)(C)C(=O)OCCCCCC` What is its recorded solubility kinetic at 24 h? 12

Param item = `C[C@H](Cn1cnc2c(N)ncnc21)OCP(=O)(NC(C)(C)C(=O)OC1CC(C)(C)C1)NC(C)(C)C(=O)OC1CC(C)(C)C1` ; retrieve measured solubility kinetic at 24 h. 54

Report solubility kinetic at 24 h for CCCCCCOC(=O)C(C)(C)NP(=O)(CO[C@H](C)Cn1cnc2c(N)ncnc21)NC(C)(C)C(=O)OCC12CC(C1)C2 (stereo partly drawn) please. 57

I'd like to know its solubility kinetic at 24 h. The molecule in question is `C[C@H](Cn1cnc2c(N)ncnc21)OCP(=O)(NC(C)(C)C(=O)O[C@H]1C[C@H](C(F)(F)F)C1)NC(C)(C)C(=O)O[C@H]1C[C@H](C(F)(F)F)C1` 78

Return reported solubility kinetic at 24 h; argument: `CC(C)CCOC(=O)C(C)(C)NP(=O)(CO[C@H](C)Cn1cnc2c(N)ncnc21)NC(C)(C)C(=O)OCCC(C)C` 49

Query: solubility kinetic at 24 h; subject: `C[C@H](Cn1cnc2c(N)ncnc21)OCP(=O)(NC(C)(C)C(=O)O[C@H]1C[C@@H](C(C)(C)C)C1)NC(C)(C)C(=O)O[C@H]1C[C@@H](C(C)(C)C)C1` 6

Requested read-out: solubility kinetic at 24 h. Entry: C[C@H](Cn1cnc2c(N)ncnc21)OCP(=O)(NC(C)(C)C(=O)OC1CC2(CCC2)C1)NC(C)(C)C(=O)OC1CC2(CCC2)C1 (stereo partly drawn) 54

Data request, read-out solubility kinetic at 24 h, for `CCC[C@H]1CC[C@H](OC(=O)C(C)(C)NP(=O)(CO[C@H](C)Cn2cnc3c(N)ncnc32)NC(C)(C)C(=O)O[C@H]2CC[C@H](CCC)CC2)CC1` 1

Param item = `CCCOC(=O)C(C)(C)NP(=O)(CO[C@H](C)Cn1cnc2c(N)ncnc21)NC(C)(C)C(=O)OCCC` ; retrieve measured solubility kinetic at 24 h. 60

----------
Experiment: Kinetic solubility analysis
Type: physicochemical
Conditions: 1× PBS, 24.2 °C, aqueous buffer, kinetic from dmso stock; pH 7.4 PBS, 1% DMSO, 24-hour incubation at ambient temperature
Field: log10 solubility kinetic at 24 h. Provide a value for each of the compounds that follow.
Field: value | Transform: log10 | Quantity: solubility kinetic at 24 h | Unit: µg/mL

Would you kindly share the measured log10 solubility kinetic at 24 h for `C[C@H](Cn1cnc2c(N)ncnc21)OCP(=O)(NC(C)(C)C(=O)O[C@@H]1C[C@@H]2C[C@@H]2C1)NC(C)(C)C(=O)O[C@@H]1C[C@@H]2C[C@@H]2C1` ? 1.88

Given the compound `C[C@H](Cn1cnc2c(N)ncnc21)OCP(=O)(NC(C)(C)C(=O)OC1CCOCC1)NC(C)(C)C(=O)OC1CCOCC1` , what is its reported log10 solubility kinetic at 24 h? 1.84

Entry under review: CCCCCCOC(=O)C(C)(C)NP(=O)(CO[C@H](C)Cn1cnc2c(N)ncnc21)NC(C)(C)C(=O)OCC12CCC(CC1)C2 (stereo partly drawn) . Reported log10 solubility kinetic at 24 h? 1.75

Given the compound `CCC(CC)CCOC(=O)C(C)(C)NP(=O)(CO[C@H](C)Cn1cnc2c(N)ncnc21)NC(C)(C)C(=O)OCCC(CC)CC` , what is its reported log10 solubility kinetic at 24 h? 0.85

Look at this compound and give its reported log10 solubility kinetic at 24 h. `CCCCCCOC(=O)C(C)(C)NP(=O)(CO[C@H](C)Cn1cnc2c(=N)n(Cc3oc(=O)oc3C)cnc21)NC(C)(C)C(=O)OCCCCCC` 1.52

# input compound: `CCCCCCOC(=O)C(C)(C)NP(=O)(CO[C@H](C)Cn1cnc2c(NC(=O)CCC)ncnc21)NC(C)(C)C(=O)OCCCCCC` ; wanted: its log10 solubility kinetic at 24 h 1.41

----------
So I've got a bunch of compounds here, and I need their EC50 values.
Tested on: HBV
Experiment: Antiviral (HBV) assay in primary human hepatocytes (PHHs)
Format: cell-based
Conditions: Hepatitis B virus, Hepatocyte, 120 h; HBV (GTD) infected PHH, 5 days, HBV DNA in supernatant; average of at least two independent experiments
Please reply with the bare figure in nM and do not write the unit itself.

What value of measured EC50 is listed for C[C@H](Cn1cnc2c(N)ncnc21)OCP(=O)(NC(C)(C)C(=O)OCCC1CCCCC1)NC(C)(C)C(=O)OCCC1CCCCC1 [Example 14] ? 2.57

Find the recorded EC50 belonging to C[C@H](Cn1cnc2c(N)ncnc21)OCP(=O)(NC(C)(C)C(=O)OCC1CC2(C1)CC(F)(F)C2)NC(C)(C)C(=O)OCC1CC2(C1)CC(F)(F)C2 [Example 58] and report it. 1.26

So what's the measured EC50 for this one? C[C@H](Cn1cnc2c(N)ncnc21)OCP(=O)(NC(C)(C)C(=O)OCC1CCC2(CCC2)CC1)NC(C)(C)C(=O)OCC1CCC2(CCC2)CC1 (stereo partly shown) [Example 53] 8.38

Recorded EC50 of C[C@H](Cn1cnc2c(N)ncnc21)OCP(=O)(NC(C)(C)C(=O)OCC12CC3CC(CC(C3)C1)C2)NC(C)(C)C(=O)OCC12CC3CC(CC(C3)C1)C2 [Example 59] , please. 6.53

# get_value(readout='EC50', item= C[C@H](Cn1cnc2c(N)ncnc21)OCP(=O)(NC(C)(C)C(=O)O[C@H]1C[C@@H](C(C)(C)C)C1)NC(C)(C)C(=O)O[C@H]1C[C@@H](C(C)(C)C)C1 [Example 51] ) 6

Which EC50 value is on record for C[C@H](Cn1cnc2c(N)ncnc21)OCP(=O)(NC(C)(C)C(=O)OC1CC(C2CCC2)C1)NC(C)(C)C(=O)OC1CC(C2CCC2)C1 (stereo partly shown) [Example 90] ? 2.95

// lookup EC50 for C[C@H](Cn1cnc2c(N)ncnc21)OCP(=O)(NC(C)(C)C(=O)O[C@H]1C[C@H](C(C)(C)C)C1)NC(C)(C)C(=O)O[C@H]1C[C@H](C(C)(C)C)C1 [Example 52] 14.4

So what does the record say about EC50 for CCCCCCOC(=O)C(C)(C)NP(=O)(CO[C@H](C)Cn1cnc2c(N)ncnc21)NC(C)(C)C(=O)OCCCCCC [Example 1] ? 1.96

Given C[C@H](Cn1cnc2c(N)ncnc21)OCP(=O)(NC(C)(C)C(=O)OCC1CC2(C1)CC1(CCC1)C2)NC(C)(C)C(=O)OCC1CC2(C1)CC1(CCC1)C2 [Example 57] , state its recorded EC50. 4.71

Query (compound): C[C@H](Cn1cnc2c(N)ncnc21)OCP(=O)(NC(C)(C)C(=O)O[C@H]1CC[C@H](C(F)(F)F)CC1)NC(C)(C)C(=O)O[C@H]1CC[C@H](C(F)(F)F)CC1 [Example 21] ; field requested: EC50 3.55

Item C[C@H](Cn1cnc2c(N)ncnc21)OCP(=O)(NC(C)(C)C(=O)OCC1CCCCCC1)NC(C)(C)C(=O)OCC1CCCCCC1 [Example 89] has what recorded EC50? 2.42

Which EC50 value belongs to C[C@H](Cn1cnc2c(N)ncnc21)OCP(=O)(NC(C)(C)C(=O)O[C@@H]1C[C@@H]2C[C@@H]2C1)NC(C)(C)C(=O)O[C@@H]1C[C@@H]2C[C@@H]2C1 [Example 60] ? 1.44

Item under review: CCCCCCCCOC(=O)C(C)(C)NP(=O)(CO[C@H](C)Cn1cnc2c(N)ncnc21)NC(C)(C)C(=O)OCCCCCCCC [Example 39] . Reported EC50? 4.5
